- tested target: GRK2 (Homo sapiens)
- Construct: purchased SignalChem A14-10G
- Sequence (P25098 whole entry): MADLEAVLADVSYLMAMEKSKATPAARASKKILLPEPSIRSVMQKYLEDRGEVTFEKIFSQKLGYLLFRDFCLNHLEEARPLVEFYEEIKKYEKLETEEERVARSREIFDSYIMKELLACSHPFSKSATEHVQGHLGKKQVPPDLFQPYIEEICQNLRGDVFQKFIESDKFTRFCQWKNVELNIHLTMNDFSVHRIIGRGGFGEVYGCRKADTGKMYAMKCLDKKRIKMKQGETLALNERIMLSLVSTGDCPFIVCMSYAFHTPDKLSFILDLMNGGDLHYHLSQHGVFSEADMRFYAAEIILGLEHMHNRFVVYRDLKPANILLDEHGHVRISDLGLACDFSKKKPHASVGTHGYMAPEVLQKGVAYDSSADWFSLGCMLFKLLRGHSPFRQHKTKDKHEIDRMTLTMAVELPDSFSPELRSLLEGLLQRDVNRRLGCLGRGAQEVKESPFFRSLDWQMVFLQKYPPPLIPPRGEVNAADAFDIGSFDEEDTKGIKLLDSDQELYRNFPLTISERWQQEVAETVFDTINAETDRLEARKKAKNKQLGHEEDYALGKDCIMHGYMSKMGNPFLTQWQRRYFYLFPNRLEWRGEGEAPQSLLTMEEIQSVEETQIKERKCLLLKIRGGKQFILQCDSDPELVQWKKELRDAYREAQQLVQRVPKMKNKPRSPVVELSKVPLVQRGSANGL
- procedure text: ADPGlo GRK2 Inhibition Assay (Example 8)
- Format: biochemical
- condition description: Enzyme Assay A, ADPGlo (Example 8); read-out: A: Enzymatic GRK2: IC50 (nM) (Example 8)
attribute measured: IC50 (nM)

CC(NC(=O)c1cccc(NCc2nnc(-c3ccncn3)n2C)c1)c1cn[nH]c1 (stereo not drawn)	13
Cn1c(CNc2cccc(C(=O)NCc3c(Cl)cncc3Cl)c2)nnc1-c1ccncn1	31
COc1ccccc1[C@H](C)NC(=O)c1cccc(NCc2nnc(-c3ccncn3)n2C)c1	94
O=C(NCc1nnc2n1CCCC2)c1cccc(NCc2nnc(-c3ccncc3)[nH]2)c1	48
Cn1c(CNc2cccc(C(=O)NCc3cccc4cccnc34)c2)nnc1-c1ccncn1 [drawing 359]	61
CC(NC(=O)c1cccc(NCc2nnc(-c3ccncn3)n2C)c1)c1ccncc1 (stereo not drawn)	11
Cc1nc(C)c(CNC(=O)c2cccc(NCc3nnc(-c4ccncn4)n3C)c2)s1	26
Cc1ccncc1CNC(=O)c1cccc(NCc2nnc(-c3ccncn3)n2C)c1	13

a = COc1ncccc1CNC(=O)c1cccc(NCc2nnc(-c3ccncn3)n2C)c1
b = CC(C)C(NC(=O)c1cccc(NCc2nnc(-c3ccncn3)n2C)c1)c1ccncc1 (stereo not drawn)
c = CC(NC(=O)c1cccc(NCc2nnc(-c3ccncn3)n2C)c1)c1ncccc1Br (stereo not drawn)
d = O=C(NCc1nccn1C(F)F)c1cccc(NCc2nnc(-c3ccncc3)[nH]2)c1
e = Cn1c(CNc2cccc(C(=O)NC3CCOc4ccccc43)c2)nnc1-c1ccncn1 (stereo not drawn)
Arrange items by their IC50 values in increasing order. Labels, ranked as asked.
c, d, e, b, a
